# target: UniProtKB P12527
# Sequence (P12527 whole entry): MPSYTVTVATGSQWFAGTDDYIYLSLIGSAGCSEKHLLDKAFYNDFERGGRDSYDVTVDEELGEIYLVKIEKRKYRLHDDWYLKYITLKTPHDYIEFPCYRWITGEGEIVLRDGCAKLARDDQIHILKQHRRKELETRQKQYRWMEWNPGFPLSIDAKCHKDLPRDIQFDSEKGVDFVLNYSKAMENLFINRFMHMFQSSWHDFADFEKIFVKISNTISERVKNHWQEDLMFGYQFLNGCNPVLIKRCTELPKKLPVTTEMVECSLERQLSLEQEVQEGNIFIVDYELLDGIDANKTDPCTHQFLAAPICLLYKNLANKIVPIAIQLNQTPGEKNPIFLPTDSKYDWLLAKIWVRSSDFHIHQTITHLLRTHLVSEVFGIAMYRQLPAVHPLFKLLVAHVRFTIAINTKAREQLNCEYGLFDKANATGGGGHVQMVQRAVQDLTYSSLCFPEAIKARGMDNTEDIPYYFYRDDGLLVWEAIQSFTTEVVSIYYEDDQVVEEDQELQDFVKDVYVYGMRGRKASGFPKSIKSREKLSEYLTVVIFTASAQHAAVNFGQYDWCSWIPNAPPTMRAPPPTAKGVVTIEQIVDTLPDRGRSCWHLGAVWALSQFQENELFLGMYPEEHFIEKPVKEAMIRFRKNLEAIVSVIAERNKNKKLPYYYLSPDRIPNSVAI
# assay-notes: In vitro inhibition of 5-lipoxygenase activity in RBL-1 cells.
# Format: cell-based
metric-name: pIC50
One number for each entry, as −log10 of the molar value.

| molecule | pIC50 |
| --- | --- |
| O=C1c2ccccc2C(=O)C1c1ccc2ccccc2c1 | 5.49 |
| O=C1CCCCC(=O)C1c1ccccc1 | 4.39 |
| O=C1c2ccccc2C(=O)C1c1ccccc1 [PHENINDIONE] | 4.82 |
| O=C1CCCCC(=O)C1c1ccc2c(c1)OCO2 | 4.60 |
| O=C1c2ccccc2C(=O)C1c1ccc(Cl)cc1 [CLORINDIONE] | 5.30 |

Kindly give each listed record's pIC50.
1. CSc1ccc(C2C(=O)c3ccccc3C2=O)cc1
2. CN(C)c1ccc(C2C(=O)c3ccccc3C2=O)cc1
3. O=C1c2ccc(Br)cc2C(=O)C1(F)c1ccccc1 (configuration not stated)
4. CSC1(c2ccccc2)C(=O)c2ccccc2C1=O
5. O=C1c2ccccc2C(=O)C1(F)c1ccccc1

Reply:
[5.57, 5.35, 5.64, 4.82, 5.77]
